# Tested on: Abp1 PPIs
# assay protocol: DHFR-PCA of Abp1 SH3-swapped baits (Fig. 2B-D, S2C, S2F);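 note: Euclidean distance between DHFR-PCA score profiles of the baits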
# Type: cell-based, Saccharomyces cerevisiae
# condition info: distance to Abp1 bait with BEM1-2 SH3; sheet Fig2C
outcome measure: Protein-protein interaction distance between Abp1 SH3-swapped baits, to BEM1-2

1) LSB1 (protein, UniProt P53281 2-241, looked up) LAS seventeen-binding protein …: SASLVNRSLKNIRNELEFLKESNVISGDIFELINSKLPEKWDGNQRSPQNADTEEYVEALYDFEAQQDGDLSLKTGDKIQVLEKISPDWYRGKSNNKIGIFPANYVKPAFTRSASPKSAEAASSSTVSRPSVPPPSYEPAASQYPSQQVSAPYAPPAGYMQAPPPQQQQAPLPYPPPFTNYYQQPQQQYAPPSQQAPVEAQPQQSSGASSAFKSFGSKLGNAAIFGAGSAIGSDIVNSIF :: 36.52
2) PEX13 (protein, UniProt P80667 1-386, looked up) Peroxisomal membrane protein …: MSSTAVPRPKPWETSASLEEPQRNAQSLSAMMTSNQQDSRPTEESNNSNSASESAPEVLPRPAALNSSGTYGESNTIPGIYGNSNYGIPYDNNPYSMNSIYGNSIGRYGYGGSYYGNNYGSFYGGGYGAGAGYGMNNGSGLGESTKATFQLIESLIGAVTGFAQMLESTYMATHNSFFTMISVAEQFGNLKEMLGSFFGIFAIMKFLKKILYRATKGRLGIPPKNFAESEGSKNKLIEDFQKFNDSGTINSNEKATRRKISWKPLLFFLMAVFGFPYLLNKFITKLQTSGTIRASQGNGSEPIDPSKLEFARALYDFVPENPEMEVALKKGDLMAILSKKDPLGRDSDWWKVRTKNGNIGYIPYNYIEIIKRRKKIEHVDDETRTH :: 35.19
3) SHO1 (protein, UniProt P40073 1-367, looked up) High osmolarity signaling …: MSISSKIRPTPRKPSRMATDHSFKMKKFYADPFAISSISLAIVSWVIAIGGSISSASTNESFPRFTWWGIVYQFLIICSLMLFYCFDLVDHYRIFITTSIAVAFVYNTNSATNLVYADGPKKAAASAGVILLSIINLIWILYYGGDNASPTNRWIDSFSIKGIRPSPLENSLHRARRRGNRNTTPYQNNVYNDAIRDSGYATQFDGYPQQQPSHTNYVSSTALAGFENTQPNTSEAVNLHLNTLQQRINSASNAKETNDNSNNQTNTNIGNTFDTDFSNGNTETTMGDTLGLYSDIGDDNFIYKAKALYPYDADDDDAYEISFEQNEILQVSDIEGRWWKARRANGETGIIPSNYVQLIDGPEEMHR :: 30.43
